target: gatekeeper mutant RETV804M (Homo sapiens, UniProt P07949, V804M); assay: RET/V804M kinase assay; details: biochemical assay; exact potency beyond measurable limit
Sequence (P07949 29-1114 V804M): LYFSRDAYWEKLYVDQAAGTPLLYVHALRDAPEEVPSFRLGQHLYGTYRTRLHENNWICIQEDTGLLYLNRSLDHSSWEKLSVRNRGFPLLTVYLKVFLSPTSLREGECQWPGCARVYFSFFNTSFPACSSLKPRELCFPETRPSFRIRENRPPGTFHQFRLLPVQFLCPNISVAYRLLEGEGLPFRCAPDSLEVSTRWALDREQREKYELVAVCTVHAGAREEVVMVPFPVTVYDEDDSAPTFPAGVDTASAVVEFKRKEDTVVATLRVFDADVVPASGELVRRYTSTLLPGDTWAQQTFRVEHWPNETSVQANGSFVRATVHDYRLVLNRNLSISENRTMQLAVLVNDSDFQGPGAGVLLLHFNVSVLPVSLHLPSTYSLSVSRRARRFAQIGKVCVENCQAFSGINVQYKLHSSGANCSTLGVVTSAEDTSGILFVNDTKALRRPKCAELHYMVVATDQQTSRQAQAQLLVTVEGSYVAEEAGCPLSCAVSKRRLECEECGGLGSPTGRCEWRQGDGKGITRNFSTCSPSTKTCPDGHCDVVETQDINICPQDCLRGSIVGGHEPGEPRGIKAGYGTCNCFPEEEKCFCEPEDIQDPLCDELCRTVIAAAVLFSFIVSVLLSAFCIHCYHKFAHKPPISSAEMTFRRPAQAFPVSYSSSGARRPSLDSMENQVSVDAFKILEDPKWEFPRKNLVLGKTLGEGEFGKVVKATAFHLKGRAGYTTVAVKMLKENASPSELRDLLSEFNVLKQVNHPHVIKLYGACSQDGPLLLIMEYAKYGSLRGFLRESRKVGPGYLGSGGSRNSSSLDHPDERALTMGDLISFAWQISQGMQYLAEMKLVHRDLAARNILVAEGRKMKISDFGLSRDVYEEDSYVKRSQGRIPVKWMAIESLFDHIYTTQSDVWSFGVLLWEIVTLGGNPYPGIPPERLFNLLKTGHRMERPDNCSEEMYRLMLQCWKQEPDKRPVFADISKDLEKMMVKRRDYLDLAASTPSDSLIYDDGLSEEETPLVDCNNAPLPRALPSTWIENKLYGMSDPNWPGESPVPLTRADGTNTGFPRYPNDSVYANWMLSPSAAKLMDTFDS
ENDPOINT LABEL: IC50

Q. Consider the compound shown here: Cn1cc(-c2ccc3c(c2)ncn3-c2ccc(CC(=O)Nc3cc(C(C)(C)C)on3)cc2)cn1 [Pz-1] What is its recorded IC50?
A. < 1 nM

====

target: CYP3A4 (Homo sapiens); test: CYP inhibition; type: in vitro ADME; details: read-out: CYP 3A4 IC50
Sequence (P08684 whole entry): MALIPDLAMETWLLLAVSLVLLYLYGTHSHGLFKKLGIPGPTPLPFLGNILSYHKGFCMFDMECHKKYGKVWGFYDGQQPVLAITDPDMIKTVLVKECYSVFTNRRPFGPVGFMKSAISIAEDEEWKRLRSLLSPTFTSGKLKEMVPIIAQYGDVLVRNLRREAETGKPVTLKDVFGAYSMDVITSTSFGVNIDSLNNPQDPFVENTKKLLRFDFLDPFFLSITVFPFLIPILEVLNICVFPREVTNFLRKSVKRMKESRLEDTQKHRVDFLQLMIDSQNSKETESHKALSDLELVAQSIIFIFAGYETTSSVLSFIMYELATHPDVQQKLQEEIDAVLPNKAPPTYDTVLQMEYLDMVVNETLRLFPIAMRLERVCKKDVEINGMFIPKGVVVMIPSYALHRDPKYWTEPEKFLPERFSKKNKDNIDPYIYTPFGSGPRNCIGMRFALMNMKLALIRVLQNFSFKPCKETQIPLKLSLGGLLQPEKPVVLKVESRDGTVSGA
ENDPOINT LABEL: pIC50
Just the number, please; pIC50 means minus log10 of the concentration in mol/L.

Q. I'd like to know its pIC50. The compound in question is Cn1cc(-c2ccc3c(c2)ncn3-c2ccc(CC(=O)Nc3cc(C(C)(C)C)on3)cc2)cn1 [Pz-1]
A. 5.13
